Ref: the NIST ThermoML archive (doi:10.1016/j.fluid.2013.11.028)

- ASSAY OVERVIEW: wn = mass fraction of the nth substance listed
- CONDITION PARAMETERS: 313.15 K; 101 kPa; Liquid; Taylor dispersion method; w1 = 0.2
MEASURED ATTRIBUTE: binary diffusion coefficient (m2/s)
Numbers only, in m2/s.

See these solved cases before continuing.
| COMPOUND | binary diffusion coefficient / m2/s |
| --- | --- |
| NCCNCCN [di(2-aminoethyl)amine] + O | 8.52e-10 |
| CNCCCN [N-methyl-1,3-diaminopropane] + O | 8.72e-10 |
| CN(C)CCN(C)C [N,N,N',N'-tetramethyl-1,2-diaminoethane] + O | 5.74e-10 |

Continue with the compound presented below.
Quote binary diffusion coefficient reported for CN(C)CCCN(C)C [N,N,N',N'-tetramethyl-1,3-propanediamine] + O please.
4.83e-10

----------
Provide the recorded binary diffusion coefficient for the entries that follow.
- ASSAY OVERVIEW: wn = mass fraction of the nth substance listed
- CONDITION PARAMETERS: 318.15 K; 101 kPa; Liquid; Taylor dispersion method; w1 = 0.4
Give bare numbers, in m2/s.

See these solved cases before continuing.
| MOLECULE | binary diffusion coefficient / m2/s |
| --- | --- |
| CNCCCN [N-methyl-1,3-diaminopropane] + O | 8.73e-10 |
| NCCNCCN [di(2-aminoethyl)amine] + O | 8.55e-10 |
| CN(C)CCCN(C)C [N,N,N',N'-tetramethyl-1,3-propanediamine] + O | 3.82e-10 |

Quote binary diffusion coefficient reported for CN(C)CCN(C)C [N,N,N',N'-tetramethyl-1,2-diaminoethane] + O please.
4.61e-10

----------
- ASSAY OVERVIEW: wn = mass fraction of the nth substance listed
- CONDITION PARAMETERS: 323.15 K; 101 kPa; Liquid; Taylor dispersion method; w1 = 0
Provide the recorded binary diffusion coefficient for the entries that follow.

See these solved cases before continuing.
| MOLECULE | binary diffusion coefficient |
| --- | --- |
| CN(C)CCCN(C)C [N,N,N',N'-tetramethyl-1,3-propanediamine] + O | 1.08e-09 m2/s |
| CNCCCN [N-methyl-1,3-diaminopropane] + O | 1.31e-09 m2/s |
| CN(C)CCN(C)C [N,N,N',N'-tetramethyl-1,2-diaminoethane] + O | 1.18e-09 m2/s |

Quote binary diffusion coefficient reported for NCCNCCN [di(2-aminoethyl)amine] + O please.
1.19e-09 m2/s

----------
- ASSAY OVERVIEW: wn = mass fraction of the nth substance listed
- CONDITION PARAMETERS: 308.15 K; 101 kPa; Liquid; Falling or rolling sphere viscometry; w1 = 0.1
Provide the recorded viscosity for the entries that follow.
One number for each entry, in mPa·s.

Each of the following entries comes with a recorded value; kindly state viscosity for each.
1. CN(C)CCN(C)C [N,N,N',N'-tetramethyl-1,2-diaminoethane] + O
2. CNCCCN [N-methyl-1,3-diaminopropane] + O
3. CN(C)CCCN(C)C [N,N,N',N'-tetramethyl-1,3-propanediamine] + O
4. NCCNCCN [di(2-aminoethyl)amine] + O

1. 1.179
2. 1.09
3. 1.183
4. 1.08

----------
Provide the recorded mass density for the entries that follow.
- CONDITION PARAMETERS: 308.15 K; 101 kPa; Liquid; Vibrating tube method
One number for each entry, in kg/m3.

See these solved cases before continuing.
| MOLECULE | mass density [kg/m3] |
| --- | --- |
| NCCNCCN [di(2-aminoethyl)amine] | 937.9 |
| CN(C)CCCN(C)C [N,N,N',N'-tetramethyl-1,3-propanediamine] | 770.9 |
| CN(C)CCN(C)C [N,N,N',N'-tetramethyl-1,2-diaminoethane] | 762.9 |

Quote mass density reported for CNCCCN [N-methyl-1,3-diaminopropane] please.
844.7
